Known remaining activity at 100 µM of a selection of compounds
Target: mGAT1 (Mus musculus, UniProt P31648)
Construct: expressed in transfected cells; host or cells: HEK293
Experiment: MS Binding Assay with NO711 as native MS marker
Conditions: in presence of 100 μM compound; read-out: remaining specific NO711 binding (mGAT1)
Please state the figure in %; there is no need to write the unit.

Consider the following illustrative entries.
Compound	remaining activity at 100 µM [%]
COc1ccc(C(OCCN2CCCC(C(=O)O)C2)(c2ccc(CNCCCC(=O)O)cc2)c2ccc(OC)cc2)cc1 (racemic)	86.5
COCc1ccc(C(OCCN2CCCC(C(=O)O)C2)(c2ccc(OC)cc2)c2ccc(OC)cc2)cc1 (racemic)	89.4
CCOC(=O)CCNCc1ccc(C(OCCN2CCCC(C(=O)OCC)C2)(c2ccc(OC)cc2)c2ccc(OC)cc2)cc1 (racemic)	72.4
CCOC(=O)C1CCCN(CCOC(C(=O)OC)(c2ccc(OC)cc2)c2ccc(OC)cc2)C1 (racemic)	90.8
CCOC(=O)C1CCCN(CCOC(c2ccc(COC)cc2)(c2ccc(COC)cc2)c2ccc(COC)cc2)C1 (racemic)	87.5
CCOC(=O)C1CCCN(CCOC(c2ccc(CNCCCC(=O)O)cc2)(c2ccc(OC)cc2)c2ccc(OC)cc2)C1 (racemic)	84.9
CCOC(=O)C1CCCN(CCOC(c2ccc(OC)cc2)(c2ccc(OC)cc2)c2ccc(C(C)=O)cc2)C1 (racemic)	84.6
CCOC(=O)c1ccc(C(OCCN2CCCC(C(=O)OCC)C2)(c2ccc(OC)cc2)c2ccc(OC)cc2)cc1 (racemic)	74.8
COc1ccc(C(OCCN2CCCC(C(=O)O)C2)(c2ccc(OC)cc2)c2ccc(C(=O)O)cc2)cc1 (racemic)	71.4
COc1ccc(C(OCCN2CCCC(C(=O)O)C2)(c2ccc(CNC(C)(C)C(=O)O)cc2)c2ccc(OC)cc2)cc1 (racemic)	77

Fill: remaining activity at 100 µM (mGAT1 (Mus musculus, UniProt P31648)) for this compound COc1ccc(C(OCCN2CCCC(C(=O)O)C2)(c2ccc(OC)cc2)c2ccc(C(N)=O)cc2)cc1 (racemic)
87

Provide remaining activity at 100 µM, recorded with mGAT1 (Mus musculus, UniProt P31648), of CCOC(=O)C1CCCN(CCOC(c2ccc(OC)cc2)(c2ccc(OC)cc2)c2ccc(C(N)=O)cc2)C1 (racemic)
89.3

Fetch value of remaining activity at 100 µM on mGAT1 (Mus musculus, UniProt P31648) for CCOC(=O)C1CCCN(CCOC(c2ccc(OC)cc2)(c2ccc(OC)cc2)c2ccc3nccn3c2)C1 (racemic) .
77.2

Fill in: remaining activity at 100 µM on mGAT1 (Mus musculus, UniProt P31648), entry COc1ccc(C(OCCN2CCCC(C(=O)O)C2)(c2ccc(CNc3ccc(C(=O)O)cc3)cc2)c2ccc(OC)cc2)cc1 (racemic)
54.1

Check mGAT1 (Mus musculus, UniProt P31648) data and give remaining activity at 100 µM for CCOC(=O)C1CCCN(CCOC(c2ccc(C=O)cc2)(c2ccc(OC)cc2)c2ccc(OC)cc2)C1 (racemic) .
85.4

Report the value of remaining activity at 100 µM obtained on mGAT1 (Mus musculus, UniProt P31648) for COc1ccc(C(OCCN2CCCC(C(=O)O)C2)(c2ccc(CNC3(C(=O)O)CC3)cc2)c2ccc(OC)cc2)cc1 (racemic) .
58.8

====

Target: mGAT1 (Mus musculus)
Construct: expressed in transfected cells; host or cells: HEK293
Test: MS Binding Assay with NO711 as native MS marker
Conditions: in presence of 100 μM compound; read-out: remaining specific NO711 binding (mGAT1)
Attribute measured: remaining activity at 100 µM (%)
Lab book: enter the figure in %, no units written.

Check out these entries, answers already filled in.
Compound	Data value
CCOC(=O)C1CCCN(CCOC(c2ccc(CNC(C)(C)C(=O)OCC)cc2)(c2ccc(OC)cc2)c2ccc(OC)cc2)C1 (racemic)	90.9
COc1ccc(C(OCCN2CCCC(C(=O)O)C2)(c2ccc(CO)cc2)c2ccc(OC)cc2)cc1 (racemic)	55
COc1ccc(C(OCCN2CCCC(C(=O)O)C2)(C(=O)O)c2ccc(OC)cc2)cc1 (racemic)	96.9
COc1ccc(C(OCCN2CCCC(C(=O)O)C2)(c2ccc(CNCCC(=O)O)cc2)c2ccc(OC)cc2)cc1 (racemic)	82.3
CCOC(=O)C1CCCN(CCOC(c2ccc(CO)cc2)(c2ccc(OC)cc2)c2ccc(OC)cc2)C1 (racemic)	75.3

For the compound CCOC(=O)C1CCCN(CCCC(O)(c2ccc(OC)cc2)c2ccc(OC)cc2)C1 (racemic) , give its reported remaining activity at 100 µM.
104

Could you please provide reported remaining activity at 100 µM for COCc1ccc(C(OCCN2CCCC(C(=O)O)C2)(c2ccc(COC)cc2)c2ccc(OC)cc2)cc1 (racemic) ? Thanks!
74.1

====

Target: mGAT2 (Mus musculus, UniProt P31651)
Construct: expressed in transfected cells; host or cells: HEK293
Sequence (P31651 whole entry): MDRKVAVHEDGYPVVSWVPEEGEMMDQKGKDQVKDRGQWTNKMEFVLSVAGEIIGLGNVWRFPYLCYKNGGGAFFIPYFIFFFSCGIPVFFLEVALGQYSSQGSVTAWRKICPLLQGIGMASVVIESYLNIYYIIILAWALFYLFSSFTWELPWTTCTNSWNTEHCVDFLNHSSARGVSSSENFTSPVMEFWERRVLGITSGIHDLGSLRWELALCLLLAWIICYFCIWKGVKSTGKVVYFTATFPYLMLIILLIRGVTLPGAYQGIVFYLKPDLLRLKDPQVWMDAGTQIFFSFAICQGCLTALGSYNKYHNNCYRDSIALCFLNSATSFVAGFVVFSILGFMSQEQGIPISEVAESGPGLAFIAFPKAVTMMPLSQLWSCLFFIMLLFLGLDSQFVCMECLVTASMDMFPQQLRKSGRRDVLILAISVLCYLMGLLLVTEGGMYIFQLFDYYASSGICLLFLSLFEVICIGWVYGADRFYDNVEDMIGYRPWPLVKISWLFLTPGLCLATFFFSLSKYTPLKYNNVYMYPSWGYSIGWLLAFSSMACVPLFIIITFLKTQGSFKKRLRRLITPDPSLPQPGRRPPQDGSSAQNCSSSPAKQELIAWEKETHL
Test: [^3H]GABA uptake assay, HEK293 cells expressing mGAT2
Type: cell-based
Details: HEK293; in presence of 100 μM compound
Entries annotated with measured remaining activity at 100 µM
Number in %, nothing else.

Compound	Test target	remaining activity at 100 µM / %
CCOC(=O)C1CCCN(CCOC(C(=O)OC)(c2ccc(OC)cc2)c2ccc(OC)cc2)C1 (racemic)	mGAT2 (Mus musculus, UniProt P31651)	92.6
CCOC(=O)C1CCCN(CCCC(O)(c2ccc(OC)cc2)c2ccc(OC)cc2)C1 (racemic)	mGAT2 (Mus musculus, UniProt P31651)	70.4
CCOC(=O)C1CCCN(CCOC(c2ccc(CNC3(C(=O)OCC)CC3)cc2)(c2ccc(OC)cc2)c2ccc(OC)cc2)C1 (racemic)	mGAT2 (Mus musculus, UniProt P31651)	103

Supply remaining activity at 100 µM value. Item: COc1ccc(C(OCCN2CCCC(C(=O)O)C2)(c2ccc(CNCCC(=O)O)cc2)c2ccc(OC)cc2)cc1 (racemic)
69.5

Annotate the compound CCOC(=O)C1CCCN(CCOC(c2ccc(C#N)cc2)(c2ccc(OC)cc2)c2ccc(OC)cc2)C1 (racemic) with its measured remaining activity at 100 µM.
80.7

Check the records and state remaining activity at 100 µM for COc1ccc(C(OCCN2CCCC(C(=O)O)C2)(c2ccc(OC)cc2)c2ccc(S(=O)(=O)N(C)C)cc2)cc1 (racemic)
78

Consider the compound COc1ccc(C(OCCN2CCCC(C(=O)O)C2)(c2ccc(CNC3(C(=O)O)CC3)cc2)c2ccc(OC)cc2)cc1 (racemic) . State its measured remaining activity at 100 µM.
76

====

Target: mGAT4 (Mus musculus)
Construct: expressed in transfected cells; host or cells: HEK293
Sequence (P31650 whole entry): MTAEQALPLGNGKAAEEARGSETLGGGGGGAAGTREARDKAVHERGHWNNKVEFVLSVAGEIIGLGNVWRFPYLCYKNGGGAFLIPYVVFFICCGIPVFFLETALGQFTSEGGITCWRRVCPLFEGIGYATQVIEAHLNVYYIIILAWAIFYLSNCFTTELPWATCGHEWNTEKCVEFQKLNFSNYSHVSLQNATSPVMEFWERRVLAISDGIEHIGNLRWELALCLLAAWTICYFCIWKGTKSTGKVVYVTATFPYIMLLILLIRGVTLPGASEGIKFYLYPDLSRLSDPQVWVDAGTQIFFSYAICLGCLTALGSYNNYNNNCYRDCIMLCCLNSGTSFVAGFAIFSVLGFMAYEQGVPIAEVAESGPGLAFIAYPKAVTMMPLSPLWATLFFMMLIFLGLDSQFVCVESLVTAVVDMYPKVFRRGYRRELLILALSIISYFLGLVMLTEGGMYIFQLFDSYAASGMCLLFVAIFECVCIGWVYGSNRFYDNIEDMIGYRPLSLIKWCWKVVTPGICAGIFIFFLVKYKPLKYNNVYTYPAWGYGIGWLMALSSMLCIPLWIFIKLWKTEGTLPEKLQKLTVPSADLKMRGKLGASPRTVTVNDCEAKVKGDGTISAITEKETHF
Experiment: [^3H]GABA uptake assay, HEK293 cells expressing mGAT4
Assay type: cell-based
Settings: [^3H]GABA uptake; pIC50±SEM
Listed below: log10 IC50 values for each entry.
Transform log10 | Measure IC50 | Unit µM

Consider the reported log10 IC50 for these molecules:
Molecule	Test target	log10 IC50
COc1ccc(C(OCCN2CCCC(C(=O)O)C2)(c2ccc(C#N)cc2)c2ccc(OC)cc2)cc1 (racemic)	mGAT4 (Mus musculus)	0.93
COc1ccc(C(OCCN2CCCC(C(=O)O)C2)(c2ccc(C=O)cc2)c2ccc(OC)cc2)cc1 (racemic)	mGAT4 (Mus musculus)	0.23
COCc1ccc(C(OCCN2CCCC(C(=O)O)C2)(c2ccc(COC)cc2)c2ccc(OC)cc2)cc1 (racemic)	mGAT4 (Mus musculus)	1.23
COc1ccc(C(OCCN2CCC[C@H](C(=O)O)C2)(c2ccc(C=O)cc2)c2ccc(OC)cc2)cc1 [(S)‐5 a]	mGAT4 (Mus musculus)	0.11

Give the reported value of log10 IC50 for this record: COCc1ccc(C(OCCN2CCCC(C(=O)O)C2)(c2ccc(OC)cc2)c2ccc(OC)cc2)cc1 (racemic)
0.58

Name the recorded log10 IC50 of the molecule listed here: CCOC(=O)C1CCCN(CCOC(c2ccc(COC)cc2)(c2ccc(COC)cc2)c2ccc(OC)cc2)C1 (racemic)
1.95

Supply log10 IC50 value. Item: COc1ccc(C(OCCN2CCC[C@@H](C(=O)O)C2)(c2ccc(C=O)cc2)c2ccc(OC)cc2)cc1 [(R)‐5 a]
1.14

====

Molecular target: mGAT3 (Mus musculus)
Sequence (P31649 1-602): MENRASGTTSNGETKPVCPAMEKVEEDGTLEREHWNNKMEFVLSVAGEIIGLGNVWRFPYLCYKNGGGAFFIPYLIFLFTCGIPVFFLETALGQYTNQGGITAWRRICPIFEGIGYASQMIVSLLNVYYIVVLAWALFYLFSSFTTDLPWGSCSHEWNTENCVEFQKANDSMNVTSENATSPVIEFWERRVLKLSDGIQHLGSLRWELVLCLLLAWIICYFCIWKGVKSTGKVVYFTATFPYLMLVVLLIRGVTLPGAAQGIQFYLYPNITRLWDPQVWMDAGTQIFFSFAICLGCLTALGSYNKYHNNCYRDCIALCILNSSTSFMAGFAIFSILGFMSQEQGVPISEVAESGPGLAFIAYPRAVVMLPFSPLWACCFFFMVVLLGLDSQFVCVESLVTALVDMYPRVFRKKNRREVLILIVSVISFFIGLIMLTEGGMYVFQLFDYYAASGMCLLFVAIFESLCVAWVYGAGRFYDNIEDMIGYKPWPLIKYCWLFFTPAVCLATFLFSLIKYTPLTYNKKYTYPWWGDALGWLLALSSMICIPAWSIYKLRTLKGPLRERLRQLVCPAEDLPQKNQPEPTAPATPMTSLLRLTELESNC
Assay: [^3H]GABA uptake assay, HEK293 cells expressing mGAT3
Conditions: [^3H]GABA uptake; pIC50±SEM
Attribute measured: pIC50
As a rule, pIC50 stands for the negative log10 of the concentration, concentration in M.

Compound	Test target	pIC50
CCOC(=O)C1CCCN(CCOC(c2ccc(OC)cc2)(c2ccc(OC)cc2)c2ccc(C(N)=O)cc2)C1 (racemic)	mGAT3 (Mus musculus)	4.10

Report pIC50 for COc1ccc(C(OCCN2CCC[C@H](C(=O)O)C2)(c2ccc(C=O)cc2)c2ccc(OC)cc2)cc1 [(S)‐5 a]
5.16

Query pIC50 for COc1ccc(C(OCCN2CCCC(C(=O)O)C2)(c2ccc(OC)cc2)c2ccc(C(=O)O)cc2)cc1 (racemic)
4.24

Write down pIC50 measured for item CCOC(=O)C1CCCN(CCOC(c2ccc(CO)cc2)(c2ccc(OC)cc2)c2ccc(OC)cc2)C1 (racemic)
4.45

For COc1ccc(C(OCCN2CCC[C@@H](C(=O)O)C2)(c2ccc(C=O)cc2)c2ccc(OC)cc2)cc1 [(R)‐5 a] , write its pIC50.
4.47

Please supply the value of reported pIC50 for the item CCOC(=O)C1CCCN(CCOC(c2ccc(OC)cc2)(c2ccc(OC)cc2)c2ccc3nccn3c2)C1 (racemic)
4.71

Please give measured pIC50 of the following entry: COc1ccc(C(OCCN2CCCC(C(=O)O)C2)(c2ccc(CNCCCC(=O)O)cc2)c2ccc(OC)cc2)cc1 (racemic)
4.33
